Taken from patent US10221163B2.

Biological target: IMP-1 (Serratia marcescens)
Sequence (P52699 whole entry, looked up, species assumed): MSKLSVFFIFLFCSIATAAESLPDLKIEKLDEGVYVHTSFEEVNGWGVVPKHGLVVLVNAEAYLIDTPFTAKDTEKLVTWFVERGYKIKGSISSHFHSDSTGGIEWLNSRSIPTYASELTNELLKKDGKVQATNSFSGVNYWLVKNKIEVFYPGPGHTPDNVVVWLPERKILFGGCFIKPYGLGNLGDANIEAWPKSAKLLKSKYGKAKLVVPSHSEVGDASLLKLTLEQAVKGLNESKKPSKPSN
Experiment: biochemical
Type: biochemical
Conditions: fluorescence assay, CCF2-FA substrate, 2 pM enzyme, 2 hours at 25° C.; read-out: IMP-1 IC50
Consider the following molecules; for each one, report its pIC50.
One number for each entry, as −log10 of the molar value.

# example entries with known answers
Nc1nc2c(-c3ccc(S(=O)(=O)NC4CCC5OC4CC5N)c(S(N)(=O)=O)c3-c3nnn[nH]3)cccc2s1.O=C(O)C(F)(F)F (stereo not drawn) [Example 95, 2,2,2-trifluoroacetate]    9.72
C[C@H](N)CNS(=O)(=O)c1ccc(-c2ccnc(N)c2)c(-c2nn[nH]n2)c1S(N)(=O)=O [Example 421]    8.94
Nc1nc2c(-c3ccc(S(=O)(=O)NC4CC5CNC4C5)c(S(N)(=O)=O)c3-c3nnn[nH]3)cccc2s1 (stereo not drawn) [Example 88]    9.76
C[N+]1(C)CC[C@@H](NS(=O)(=O)c2ccc(-c3cccc4[nH]c(N)nc34)c(-c3nn[nH]n3)c2S(N)(=O)=O)C1.[Cl-] [Example 233]    9.52
NC[C@H](N)CNS(=O)(=O)c1ccc(-c2cccc(-c3c[nH]c(N)n3)c2)c(-c2nn[nH]n2)c1S(N)(=O)=O [Example 434]    8.82

Give measured pIC50 for every item shown.
1. Nc1nc2c(-c3ccc(S(=O)(=O)N[C@@H]4CCCNC4)c(S(N)(=O)=O)c3-c3nnn[nH]3)cccc2[nH]1 [Example 178]
2. NCCNS(=O)(=O)c1ccc(-c2cccc(SC[C@H](O)CN)c2)c(-c2nn[nH]n2)c1S(N)(=O)=O [Example 356]
3. C[C@H](N)CNS(=O)(=O)c1ccc(-c2cccc3[nH]c(N)nc23)c(-c2nn[nH]n2)c1S(N)(=O)=O [Example 184]
4. Nc1nc2c(-c3ccc(S(=O)(=O)NC4CNC4)c(S(N)(=O)=O)c3-c3nn[nH]n3)cccc2s1 [Example 146]
5. Nc1nc2c(-c3ccc(S(=O)(=O)N[C@H]4CO[C@H]5[C@@H]4OC[C@H]5N)c(S(N)(=O)=O)c3-c3nnn[nH]3)cccc2s1.O=C(O)C(F)(F)F [Example 103, 2,2,2-trifluoroacetate]
6. NC[C@@H](N)CNS(=O)(=O)c1ccc(-c2cccc3[nH]c(N)nc23)c(-c2nn[nH]n2)c1S(N)(=O)=O [Example 375]
7. Nc1ccc2cccc(-c3ccc(S(=O)(=O)N[C@H]4CNC[C@H]4N)c(S(N)(=O)=O)c3-c3nn[nH]n3)c2n1 [Example 324]
8. CC[C@@H](CN)NS(=O)(=O)c1ccc(-c2cccc3[nH]c(N)nc23)c(-c2nn[nH]n2)c1S(N)(=O)=O [Example 264]

Response:
1. 9.06
2. 8.85
3. 9.17
4. 9.45
5. 9.65
6. 9.22
7. 9.67
8. 8.23

----------
Test system: Pseudomonas aeruginosa MB9798 vs MB9799
Details: ratio MITC95 PA_9798/MITC95 PA_9799
Consider the following compounds; for each one, report its Efflux ratio.

# example entries with known answers
CN1CCN(S(=O)(=O)c2ccc(-c3cccc4sc(N)nc34)c(-c3nnn[nH]3)c2S(N)(=O)=O)CC1 [Example 27]    2.00
Nc1nc2c(-c3ccc(S(=O)(=O)NC[C@@H]4CCCN4)c(S(N)(=O)=O)c3-c3nn[nH]n3)cccc2[nH]1 [Example 262]    1.00

Give measured Efflux ratio for every item shown.
1. Nc1cc(-c2ccc(S(=O)(=O)N[C@@H]3CCNC3)c(S(N)(=O)=O)c2-c2nn[nH]n2)ccn1 [Example 288]
2. CN(C1CCS(=O)(=O)C1)S(=O)(=O)c1ccc(-c2cccc3sc(N)nc23)c(-c2nnn[nH]2)c1S(N)(=O)=O (stereo not drawn) [Example 41]
3. NCCNS(=O)(=O)c1ccc(-c2cccc3ccc(N)nc23)c(-c2nn[nH]n2)c1S(N)(=O)=O [Example 355]
4. N[C@H](CO)c1nc2c(-c3ccc(S(=O)(=O)N[C@H]4CNC[C@H]4N)c(S(N)(=O)=O)c3-c3nn[nH]n3)cccc2[nH]1 [Example 323]
5. NC[C@@H](O)CNS(=O)(=O)c1ccc(-c2cccc3[nH]c(N)nc23)c(-c2nn[nH]n2)c1S(N)(=O)=O [Example 298]
6. CN(C1CCCNC1)S(=O)(=O)c1ccc(-c2cccc3sc(N)nc23)c(-c2nnn[nH]2)c1S(N)(=O)=O (stereo not drawn) [Example 64]
7. Cn1c(N)nc2c(-c3ccc(S(=O)(=O)N[C@H]4CCNC4)c(S(N)(=O)=O)c3-c3nn[nH]n3)cccc21 [Example 163]

Response:
1. 2.00
2. 8.00
3. 1.00
4. 1.00
5. 0.69
6. 2.00
7. 1.00
